Every entry's value here was drawn from patent US4634706A.

Molecular target: cGMP PDE
Assay: Phosphodiesterase (PDE) inhibitory activity, cGMP substrate
Conditions: cGMP as substrate, crude enzyme from rat brains; read-out: I50 cGMP PDE
Sorting guide: entries reporting IC50 beneath 2000 nM go in the T pile, the rest go in the F pile.

> print(dat)
                                   compound  label
1  [N-]=[N+]=N[C@H](C(=O)O)C1(C(=O)O)C=C2OC(n3cnc4c(N)ncnc43)[C@H](O)C2O1 (some centres unmarked)      F
2  O=C(O)[C@H](O)C1(C(=O)O)C=C2OC(n3cnc4c(NCc5ccccc5)ncnc43)[C@H](O)C2O1 (some centres unmarked)      F
3  CC(=O)O[C@@H](C(=O)O)C1(C(=O)O)C=C2OC(n3cnc4c(=N)n(Cc5ccccc5)cnc43)[C@H](O)C2O1 (some centres unmarked)      T
4  N=c1c2ncn(C3OC4=CC(C(=O)O)([C@@H](O)C(=O)O)OC4[C@H]3O)c2ncn1Cc1ccccc1 (some centres unmarked)      T
5  Nc1ncnc2c1nc(Br)n2C1OC2=CC(C(=O)O)([C@@H](O)C(=O)O)OC2[C@H]1O (some centres unmarked)      T
